Ref: ChEMBL document CHEMBL4513216

Provide the recorded INHIBITION for the entries that follow.
Tested on: Plasmodium berghei
PROTOCOL DETAILS: Screen against P. berghei liver stage (PbLuc), transformed with Luciferase, at 10uM
Type: functional, HepG2
CONDITION LABEL: tested at 10 uM
About 8,600 (12%) of roughly 69,000 compounds showed an effect of 50% or more. Many of the other results were omitted from the sample, so strong results are more common in it than they were.
One number for each entry, in %.

COMPOUND	INHIBITION / %
COc1cc(NC(=O)N(C)CCC2CC2)ncn1	4.82

State recorded INHIBITION for all listed compounds.
1. COc1cc(NC(=O)N(C)C(C2CC2)C2CC2)ncn1
2. CCOc1cc(F)ccc1NC(=O)NCC(c1cnn(C)c1)N(C)C (configuration not stated)
3. Cc1ccc(NC(=O)NCC(c2cnn(C)c2)N(C)C)c(C)c1 (configuration not stated)
4. CN1C[C@H]2CC[C@@H](C1)N(Cc1ccccc1OCCN1CCOCC1)C2
5. CCOCc1ccccc1NC(=O)NCC(c1cnn(C)c1)N(C)C (configuration not stated)
6. CCCc1n[nH]c(C2CN(C(=O)c3cncnc3C)CCO2)n1 (configuration not stated)
7. Cc1ccc(CN2CC(C(=O)NCC3CC3)C3(CCOCC3)C2)s1 (configuration not stated)

A.
1: 88.4; 2: 44.9; 3: 57.7; 4: -154; 5: 2.91; 6: 36.1; 7: -18.5

State recorded INHIBITION for all listed compounds.
1. CCOc1ccccc1CNC(=O)NCC(c1cnn(C)c1)N(C)C (configuration not stated)
2. NC(=O)Cn1c(CO)cnc1SCc1ccccc1Cl
3. Cc1ccc(C(=O)NCC(c2cnn(C)c2)N(C)C)c(O)c1 (configuration not stated)
4. Cn1ccnc1CCC1CCCCN1Cc1cnc(N2CCCC2)nc1 (configuration not stated)

A.
1. 62.8
2. -4.01
3. 1.19
4. -25
